Target: Tyro3 (Homo sapiens, UniProt Q06418)
Sequence (Q06418 41-890): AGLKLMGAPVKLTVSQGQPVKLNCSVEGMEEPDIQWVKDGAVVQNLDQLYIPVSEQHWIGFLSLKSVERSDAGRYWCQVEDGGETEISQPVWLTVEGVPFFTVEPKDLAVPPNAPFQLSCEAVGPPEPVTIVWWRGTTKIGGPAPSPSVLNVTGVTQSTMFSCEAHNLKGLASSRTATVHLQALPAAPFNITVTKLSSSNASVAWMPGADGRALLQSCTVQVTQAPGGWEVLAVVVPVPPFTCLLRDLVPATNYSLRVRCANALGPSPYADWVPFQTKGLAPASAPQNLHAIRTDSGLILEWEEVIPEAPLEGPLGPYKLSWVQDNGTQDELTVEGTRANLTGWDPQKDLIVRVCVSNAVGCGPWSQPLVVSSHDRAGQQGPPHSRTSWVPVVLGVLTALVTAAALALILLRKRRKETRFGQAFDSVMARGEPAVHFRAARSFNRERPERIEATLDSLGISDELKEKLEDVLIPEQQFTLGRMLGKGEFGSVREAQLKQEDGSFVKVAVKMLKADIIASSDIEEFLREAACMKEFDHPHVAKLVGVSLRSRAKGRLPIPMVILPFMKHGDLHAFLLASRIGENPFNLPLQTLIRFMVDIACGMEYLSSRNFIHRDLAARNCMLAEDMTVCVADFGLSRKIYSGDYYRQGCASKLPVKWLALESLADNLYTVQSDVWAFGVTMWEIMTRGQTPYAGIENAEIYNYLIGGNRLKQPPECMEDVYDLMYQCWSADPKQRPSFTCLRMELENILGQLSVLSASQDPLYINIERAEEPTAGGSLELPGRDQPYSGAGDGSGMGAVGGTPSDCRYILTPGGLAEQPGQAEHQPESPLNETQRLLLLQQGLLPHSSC
Assay: Tyro3 kinase inhibition IC50
Assay type: biochemical
Details: Example 6; read-out: Tyro IC50
quantityName: IC50 (µM)
Please state the figure in µM; there is no need to write the unit.

# input Determine from records and report IC50 for CCCCN(C)c1ncc2c(-c3ccc(F)cc3)nn(C[C@H]3CC[C@H](N)CC3)c2n1 [UNC1653, reference compound]
# output 15

* * *

Listed below: pIC50 values for each entry.
Target: UniProt P30530
Assay: Axl kinase inhibition IC50
Format: biochemical
Settings: Table 4
pIC50: −log10 of the molar value.

{"columns": ["compound", "pIC50"],
 "data": [
  ["O[C@H]1CC[C@H](Nc2nc(Nc3ccc(C#Cc4cc(-c5cncnc5)ccn4)cc3)ncc2-c2ccccn2)CC1 [UNC4362A]", "6.00 to 7.00"],
  ["O[C@H]1CC[C@H](Nc2nc(Nc3ccc(C#Cc4cc(-c5ccn[nH]5)ccn4)cc3)ncc2-c2ccccn2)CC1 [UNC4360A]", "4.52 to 6.00"],
  ["O[C@H]1CC[C@H](Nc2nc(Nc3ccc(C#Cc4cc(-c5cccnc5)ccn4)cc3)ncc2-c2ccccn2)CC1 [UNC4361A]", "6.00 to 7.00"],
  ["O[C@H]1CC[C@H](Nc2nc(Nc3ccc(C#Cc4cc(-c5ncc[nH]5)ccn4)cc3)ncc2-c2ccccn2)CC1 [UNC4357A]", "4.52 to 6.00"],
  ["CC(C)Nc1ccnc(C#Cc2ccc(Nc3ncc(-c4ccccn4)c(N[C@H]4CC[C@H](O)CC4)n3)cc2)c1 [UNC4364A]", "6.00 to 7.00"],
  ["O[C@H]1CC[C@H](Nc2nc(Nc3ccc(C#Cc4cc(-c5ccncc5)ccn4)cc3)ncc2-c2ccccn2)CC1 [UNC4363A]", "4.52 to 6.00"]
]}

With those in mind, consider the next compound.
# input Determine from records and report pIC50 for O[C@H]1CC[C@H](Nc2nc(Nc3ccc(C#Cc4cc(Nc5ncco5)ccn4)cc3)ncc2-c2ccccn2)CC1 [UNC4392A]
# output 4.52 to 6.00

* * *

Listed below: IC50 values for each entry.
Molecular target: Axl (Homo sapiens)
Sequence (P30530 26-894): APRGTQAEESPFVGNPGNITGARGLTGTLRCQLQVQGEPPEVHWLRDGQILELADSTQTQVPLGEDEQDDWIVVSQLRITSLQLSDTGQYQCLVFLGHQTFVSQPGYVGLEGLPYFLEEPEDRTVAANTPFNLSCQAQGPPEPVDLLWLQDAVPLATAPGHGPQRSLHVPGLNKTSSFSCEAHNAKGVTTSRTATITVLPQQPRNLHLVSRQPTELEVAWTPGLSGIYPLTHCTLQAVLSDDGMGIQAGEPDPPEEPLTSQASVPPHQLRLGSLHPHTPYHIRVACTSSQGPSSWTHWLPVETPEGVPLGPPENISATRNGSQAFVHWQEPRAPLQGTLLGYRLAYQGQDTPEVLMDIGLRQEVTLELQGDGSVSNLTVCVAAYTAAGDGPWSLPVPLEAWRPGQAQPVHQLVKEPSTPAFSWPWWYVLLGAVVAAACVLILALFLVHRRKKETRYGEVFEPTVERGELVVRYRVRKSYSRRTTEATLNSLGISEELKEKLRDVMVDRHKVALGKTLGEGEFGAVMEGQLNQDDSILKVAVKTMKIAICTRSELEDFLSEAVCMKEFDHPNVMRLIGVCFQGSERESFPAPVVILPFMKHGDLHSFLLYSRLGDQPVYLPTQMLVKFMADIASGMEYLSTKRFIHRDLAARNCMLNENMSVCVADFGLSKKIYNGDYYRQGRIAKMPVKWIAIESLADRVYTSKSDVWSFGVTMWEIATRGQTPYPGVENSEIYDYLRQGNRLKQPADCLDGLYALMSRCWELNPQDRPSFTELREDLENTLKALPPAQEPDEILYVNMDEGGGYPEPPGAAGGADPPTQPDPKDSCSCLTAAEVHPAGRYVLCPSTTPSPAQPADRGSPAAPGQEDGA
Assay: Axl kinase inhibition IC50
Type: biochemical
Conditions: Table 2

See these solved cases before continuing.
{"columns": ["compound", "obsValue"],
 "data": [
  ["CN1CCCC(c2ccc(Nc3ncc(-c4ccccn4)c(N[C@H]4CC[C@H](O)CC4)n3)cc2)C1 (some centres unmarked) [UNC5131A]", "100 to 1000 nM"],
  ["O[C@H]1CC[C@H](Nc2nc(Nc3ccc(C4CCCNC4)cc3)ncc2-c2ccccn2)CC1 (some centres unmarked) [UNC5129A]", "100 to 1000 nM"],
  ["CN1CCC(c2ccc(Nc3ncc(-c4ccccn4)c(N[C@H]4CC[C@H](C)CC4)n3)cc2)CC1 [UNC5133A]", "1000 to 30000 nM"]
]}

# input Determine from records and report IC50 for O[C@H]1CC[C@H](Nc2nc(Nc3ccc(C4=CCCNC4)cc3)ncc2-c2ccccn2)CC1 [UNC5113A]
# output 100 to 1000 nM

# input Determine from records and report IC50 for CN1CC=C(c2ccc(Nc3ncc(-c4ccccn4)c(N[C@H]4CC[C@H](O)CC4)n3)cc2)CC1 [UNC4431A]
# output 1000 to 30000 nM

# input Determine from records and report IC50 for O[C@H]1CC[C@H](Nc2nc(Nc3ccc(C4CCNCC4)cc3)ncc2-c2ccccn2)CC1 [UNC5128A]
# output 1000 to 30000 nM

# input Determine from records and report IC50 for O[C@H]1CC[C@H](Nc2nc(Nc3ccc(C4=CCOCC4)cc3)ncc2-c2ccccn2)CC1 [UNC4434A]
# output 100 to 1000 nM

# input Determine from records and report IC50 for CN1CCC(c2ccc(Nc3ncc(-c4ccccn4)c(NC4CCOCC4)n3)cc2)CC1 [UNC5134A]
# output 1000 to 30000 nM

* * *

Listed below: IC50 values for each entry.
Molecular target: Axl (Homo sapiens, UniProt P30530)
Experiment: Axl kinase inhibition IC50
Format: biochemical
Conditions: Table 5

{"columns": ["molecule", "IC50"],
 "data": [
  ["CC(C)Oc1ccnc(C#Cc2ccc(Nc3ncc(-c4ccccn4)c(N[C@H]4CC[C@H](O)CC4)n3)cc2)c1 [UNC4394A]", "100 to 1000 nM"]
]}

# input For Axl (Homo sapiens, UniProt P30530), give the measured IC50 of the entry COc1cccc(Oc2ccnc(C#Cc3ccc(Nc4ncc(-c5ccccn5)c(N[C@H]5CC[C@H](O)CC5)n4)cc3)c2)c1 [UNC4393A]
# output 1000 to 30000 nM

* * *

Target: Tyro3 (Homo sapiens, UniProt Q06418)
Assay: Tyro3 kinase inhibition IC50
Format: biochemical
Conditions: Table 3; read-out: Tyro3 IC50
pIC50: −log10 of the molar value.
quantityName: pIC50

See these solved cases before continuing.
{"columns": ["compound", "quantityName", "obsValue"],
 "data": [
  ["CCNC(=O)c1ccnc(C#Cc2ccc(Nc3ncc(-c4ccccn4)c(N[C@H]4CC[C@H](O)CC4)n3)cc2)c1 [UNC3458A]", "pIC50", "> 8.00"],
  ["NS(=O)(=O)c1ccc(-c2cnc(Nc3ccc(C#Cc4cc(C(=O)NC5CC5)ccn4)cc3)nc2N[C@H]2CC[C@H](O)CC2)nc1 [UNC3457A]", "pIC50", "6.00 to 7.00"]
]}

# input Determine from records and report pIC50 for CC(C)C(=O)Nc1ccnc(C#Cc2ccc(Nc3ncc(-c4ccc(CN5CCN(C)CC5)cc4)c(N[C@H]4CC[C@H](O)CC4)n3)c(F)c2)c1 [UNC4040A]
# output > 8.00

* * *

Listed below: IC50 values for each entry.
Molecular target: Tyro3 (Homo sapiens, UniProt Q06418)
Assay: Tyro3 kinase inhibition IC50
Format: biochemical
Conditions: Table 2; read-out: Tyro3 IC50

{"columns": ["compound", "quantityName", "obsValue"],
 "data": [
  ["CN1CCC(c2ccc(Nc3ncc(-c4ccccn4)c(N[C@H]4CC[C@H](C)CC4)n3)cc2)CC1 [UNC5133A]", "IC50", "100 to 1000 nM"]
]}

# input Determine from records and report IC50 for O[C@H]1CC[C@H](Nc2nc(Nc3ccc(C4=CCCN(C5CCC5)C4)cc3)ncc2-c2ccccn2)CC1 [UNC5070A]
# output 100 to 1000 nM

# input Determine from records and report IC50 for O[C@H]1CC[C@H](Nc2nc(Nc3ccc(C4CCNCC4)cc3)ncc2-c2ccccn2)CC1 [UNC5128A]
# output 100 to 1000 nM

# input Determine from records and report IC50 for CNc1nc(Nc2ccc(C3CCN(C)CC3)cc2)ncc1-c1ccccn1 [UNC5136A]
# output 1000 to 30000 nM
